Quick reference for Minimal inhibitory concentration (MIC), MDRST 8007 among some substances
System: MDRST 8007 (MDR S. typhimurium CCARM 8007)
experimental_context: 1% peptone, 2 × 10^6 CFU/mL, 16 h, 37 °C
No end group written: not given here.
Only the number, expressed in µM, is required.

Reference set, count: 4
[[record]]
substance = "RWKIFKKIEKVG-NH2 [Pap12-1]"
target_or_test_system = "MDRST 8007 (MDR S. typhimurium CCARM 8007)"
reported = 32

[[record]]
substance = "RWKIFKKVVKKW-NH2 [Pap12-6]"
target_or_test_system = "MDRST 8007 (MDR S. typhimurium CCARM 8007)"
reported = 8

[[record]]
substance = "RWKIFKKVVKKG-NH2 [Pap12-3]"
target_or_test_system = "MDRST 8007 (MDR S. typhimurium CCARM 8007)"
reported = 16

[[record]]
substance = "RWKIFKKAAKKG-NH2 [Pap12-2]"
target_or_test_system = "MDRST 8007 (MDR S. typhimurium CCARM 8007)"
reported = 16


-- ask Given RWKIFKKVVKKA-NH2 [Pap12-5] , respond with its Minimal inhibitory concentration (MIC), MDRST 8007.
-- reply 16

-- ask Given RWKIFKKAAKKA-NH2 [Pap12-4] , respond with its Minimal inhibitory concentration (MIC), MDRST 8007.
-- reply 16

---

Tested on: A. baumannii (KCTC 2508)
experimental_context: 1% peptone, 2 × 10^6 CFU/mL, 16 h, 37 °C
No end group written: not given here.
measured_metric: Minimal inhibitory concentration (MIC), A. baumannii (µM)
Only the number, expressed in µM, is required.

-- ask Given RWKIFKKAAKKG-NH2 [Pap12-2] , respond with its Minimal inhibitory concentration (MIC), A. baumannii.
-- reply 32

-- ask Given RWKIFKKVVKKA-NH2 [Pap12-5] , respond with its Minimal inhibitory concentration (MIC), A. baumannii.
-- reply 8

-- ask Given RWKIFKKIEKVG-NH2 [Pap12-1] , respond with its Minimal inhibitory concentration (MIC), A. baumannii.
-- reply 64

-- ask Given RWKIFKKAAKKA-NH2 [Pap12-4] , respond with its Minimal inhibitory concentration (MIC), A. baumannii.
-- reply 32

-- ask Given RWKIFKKVVKKW-NH2 [Pap12-6] , respond with its Minimal inhibitory concentration (MIC), A. baumannii.
-- reply 4

-- ask Given RWKIFKKVVKKG-NH2 [Pap12-3] , respond with its Minimal inhibitory concentration (MIC), A. baumannii.
-- reply 16

---

Tested on: S. epidermidis (KCTC 1917)
experimental_context: 1% peptone, 2 × 10^6 CFU/mL, 16 h, 37 °C
Method: The antimicrobial activities of Pap12 peptides were tested against four standard Gram-negative bacteria (E. coli, Pseudomonas aeruginosa, Acinetobacter baumannii, and Salmonella typhimurium), three standard Gram-positive bacteria (Staphylococcus aureus, Bacillus subtilis, and Staphylococcus epidermidis), and five MDR bacteria (MDREC CCARM 1229, MDRPA CCARM 2002, MDRAB CCARM 12035, MDRST CCARM 8007, and MRSA CCARM 3126) using the microbroth dilution method. […]
No end group written: not given here.
measured_metric: Minimal inhibitory concentration (MIC), S. epidermidis (µM)
Only the number, expressed in µM, is required.

-- ask GET Minimal inhibitory concentration (MIC), S. epidermidis where system = S. epidermidis (KCTC 1917) and item = RWKIFKKVVKKG-NH2 [Pap12-3]
-- reply 16

-- ask GET Minimal inhibitory concentration (MIC), S. epidermidis where system = S. epidermidis (KCTC 1917) and item = RWKIFKKVVKKW-NH2 [Pap12-6]
-- reply 8

---

Quick reference for HC10, peptide concentration resulting in 10% hemolysis of fresh human erythrocytes among some substances
Tested on: human red blood cells (hRBCs)
assay_remarks: Hemolysis of human red blood cells
No end group written: not given here.
# include the unit after the value

Reference set, count: 5
[[record]]
substance = "RWKIFKKVVKKA-NH2 [Pap12-5]"
reported = "200 µM"

[[record]]
substance = "RWKIFKKVVKKW-NH2 [Pap12-6]"
reported = "100 µM"

[[record]]
substance = "RWKIFKKIEKVG-NH2 [Pap12-1]"
reported = "200 µM"

[[record]]
substance = "RWKIFKKAAKKG-NH2 [Pap12-2]"
reported = "200 µM"

[[record]]
substance = "RWKIFKKVVKKG-NH2 [Pap12-3]"
reported = "200 µM"


Would you kindly look at the next entry?
-- ask Given RWKIFKKAAKKA-NH2 [Pap12-4] , respond with its HC10, peptide concentration resulting in 10% hemolysis of fresh human erythrocytes.
-- reply 200 µM

---

System: S. aureus (KCTC 1621)
experimental_context: 1% peptone, 2 × 10^6 CFU/mL, 16 h, 37 °C
No end group written: not given here.
Quick reference for Minimal inhibitory concentration (MIC), S. aureus among some substances
Only the number, expressed in µM, is required.

Reference set, count: 3
[[record]]
substance = "RWKIFKKVVKKG-NH2 [Pap12-3]"
target_or_test_system = "S. aureus (KCTC 1621)"
reported = 8

[[record]]
substance = "RWKIFKKIEKVG-NH2 [Pap12-1]"
target_or_test_system = "S. aureus (KCTC 1621)"
reported = 16

[[record]]
substance = "RWKIFKKAAKKG-NH2 [Pap12-2]"
target_or_test_system = "S. aureus (KCTC 1621)"
reported = 16


-- ask GET Minimal inhibitory concentration (MIC), S. aureus where system = S. aureus (KCTC 1621) and item = RWKIFKKAAKKA-NH2 [Pap12-4]
-- reply 8

-- ask GET Minimal inhibitory concentration (MIC), S. aureus where system = S. aureus (KCTC 1621) and item = RWKIFKKVVKKA-NH2 [Pap12-5]
-- reply 8

-- ask GET Minimal inhibitory concentration (MIC), S. aureus where system = S. aureus (KCTC 1621) and item = RWKIFKKVVKKW-NH2 [Pap12-6]
-- reply 4

---

System: S. epidermidis (KCTC 1917)
experimental_context: 1% peptone, 2 × 10^6 CFU/mL, 16 h, 37 °C
No end group written: not given here.
measured_metric: Minimal inhibitory concentration (MIC), S. epidermidis (µM)
Only the number, expressed in µM, is required.

Reference set, count: 3
[[record]]
substance = "RWKIFKKVVKKA-NH2 [Pap12-5]"
unit_spec = "µM"
reported = 16

[[record]]
substance = "RWKIFKKAAKKA-NH2 [Pap12-4]"
unit_spec = "µM"
reported = 32

[[record]]
substance = "RWKIFKKAAKKG-NH2 [Pap12-2]"
unit_spec = "µM"
reported = 32


Would you kindly look at the next entry?
-- ask Given RWKIFKKIEKVG-NH2 [Pap12-1] , respond with its Minimal inhibitory concentration (MIC), S. epidermidis.
-- reply 64
